target: Human PD-L1/PD-1 (Homo sapiens); construct: made in house; host or cells: HEK293T; test: HTRF PD-1-Ig/PD-L1-His binding assay (human PD-L1); settings: cluster symbol; read-out: HTRF IC50 cluster
Positions of bridges follow the written chain, without caps; N, C: chain ends. Non-standard residues stand in square brackets, D forms with d. Residues, ends and D or L forms follow the SMILES beside them. ξ: configuration not given here. Ile(3ξ) = CCC(C)[C@H](N)C(=O)O; NMeNle = CCCC[C@H](NC)C(=O)O; NMeA = CN[C@@H](C)C(=O)O; Sar = CNCC(=O)O

{"columns": ["Compound", "Target Or Test System", "IC50"],
 "data": [
  ["CCCC[C@H]1C(=O)N(C)[C@@H](CCCC)C(=O)N[C@@H](CCCNC(=N)N)C(=O)N[C@H](C(=O)NCC(N)=O)CSCC(=O)N[C@@H](Cc2ccccc2)C(=O)N(C)[C@@H](C)C(=O)N[C@@H](CC(N)=O)C(=O)N2CCC[C@H]2C(=O)N[C@@H](Cc2cnc[nH]2)C(=O)N[C@@H](C(C)CC)C(=O)N(C)CC(=O)N[C@@H](Cc2c[nH]c3ccccc23)C(=O)N[C@@H](CO)C(=O)N[C@@H](Cc2c[nH]c3ccccc23)C(=O)N1C (stereo partly shown) [Example 6011] ({CH2CO}-F[NMeA]NPH[Ile(3ξ)][Sar]WSW[NMeNle][NMeNle]RCG-NH2; thioether N-14)", "Human PD-L1/PD-1 (Homo sapiens)", "6.76 to 30.3 nM"]
]}

---

molecular target: Human PD-L1/PD-1 (Homo sapiens, UniProt Q9NZQ7); construct: made in house; host or cells: HEK293T; test: HTRF PD-1-Ig/PD-L1-His binding assay (human PD-L1); conditions: cluster symbol; read-out: HTRF IC50 cluster
Sequence (Q9NZQ7 with tags, fused parts or gaps): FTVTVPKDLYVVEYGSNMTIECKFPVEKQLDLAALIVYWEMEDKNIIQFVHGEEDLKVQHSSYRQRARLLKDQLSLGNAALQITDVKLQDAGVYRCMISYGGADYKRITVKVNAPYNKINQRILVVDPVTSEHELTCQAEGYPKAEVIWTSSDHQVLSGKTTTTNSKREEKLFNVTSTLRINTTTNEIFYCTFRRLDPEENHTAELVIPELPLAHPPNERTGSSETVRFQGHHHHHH
pIC50: −log10 of the molar value. Positions of bridges follow the written chain, without caps; N, C: chain ends. Non-standard residues stand in square brackets, D forms with d. Residues, ends and D or L forms follow the SMILES beside them. NMeNle = CCCC[C@H](NC)C(=O)O; NMeA = CN[C@@H](C)C(=O)O; Sar = CNCC(=O)O

{"columns": ["Molecule", "Target Or Test System", "pIC50"],
 "data": [
  ["CCCC[C@H]1C(=O)N(C)[C@@H](CCCC)C(=O)N[C@@H](CCCNC(=N)N)C(=O)N[C@H](C(=O)NCC(N)=O)CSCC(=O)N[C@@H](Cc2ccccc2)C(=O)N(C)[C@@H](C)C(=O)N[C@@H](CCC(N)=O)C(=O)N2CCC[C@H]2C(=O)N[C@@H](Cc2cnc[nH]2)C(=O)N[C@@H](CC(C)C)C(=O)N(C)CC(=O)N[C@@H](Cc2c[nH]c3ccccc23)C(=O)N[C@@H](CO)C(=O)N[C@@H](Cc2c[nH]c3ccccc23)C(=O)N1C [Example 1089] ({CH2CO}-F[NMeA]QPHL[Sar]WSW[NMeNle][NMeNle]RCG-NH2; thioether N-14)", "Human PD-L1/PD-1 (Homo sapiens, UniProt Q9NZQ7)", "< 7.52"]
]}

---

biological target: Human PD-L1/PD-1 (Homo sapiens); construct: made in house; host or cells: HEK293T; test: HTRF PD-1-Ig/PD-L1-His binding assay (human PD-L1); details: cluster symbol; read-out: HTRF IC50 cluster
Positions of bridges follow the written chain, without caps; N, C: chain ends. Non-standard residues stand in square brackets, D forms with d. Residues, ends and D or L forms follow the SMILES beside them. Bta = N[C@@H](Cc1csc2ccccc12)C(=O)O; Hyp = O=C(O)[C@@H]1C[C@@H](O)CN1; NMeNle = CCCC[C@H](NC)C(=O)O; NMeA = CN[C@@H](C)C(=O)O; Orn = NCCC[C@H](N)C(=O)O; Dab = NCC[C@H](N)C(=O)O; Dap = NC[C@H](N)C(=O)O

{"columns": ["Molecule", "IC50"],
 "data": [
  ["CCCC[C@H]1C(=O)N(C)[C@@H](CCCC)C(=O)N[C@@H](CCCNC(=N)N)C(=O)N[C@H](C(=O)NCC(N)=O)CSCC(=O)N[C@@H](Cc2ccc(O)cc2)C(=O)N(C)[C@@H](C)C(=O)N[C@@H](CC(N)=O)C(=O)N2CCC[C@H]2C(=O)N[C@@H](Cc2cnc[nH]2)C(=O)N[C@@H](CC(C)C)C(=O)N2C[C@H](C#N)C[C@H]2C(=O)N[C@@H](Cc2c[nH]c3ccccc23)C(=O)N[C@@H](CO)C(=O)N[C@@H](Cc2c[nH]c3ccccc23)C(=O)N1C", "0.385 to 6.74 nM"],
  ["CCCC[C@H]1C(=O)N(C)[C@@H](CCCC)C(=O)N[C@@H](C)C(=O)N[C@H](C(=O)NCC(=O)O)CSCC(=O)N[C@@H](Cc2ccc(O)cc2)C(=O)N(C)[C@@H](C)C(=O)N[C@@H](CC(N)=O)C(=O)N2CCC[C@H]2C(=O)N[C@@H](Cc2cnc[nH]2)C(=O)N[C@@H](CC(C)C)C(=O)N[C@@H](CCN)C(=O)N[C@@H](Cc2c[nH]c3ccccc23)C(=O)N[C@@H](CO)C(=O)N[C@@H](Cc2c[nH]c3ccccc23)C(=O)N1C", "6.76 to 30.3 nM"],
  ["CCCC[C@H]1C(=O)N(C)[C@@H](CCCC)C(=O)N[C@@H](CCCN)C(=O)N[C@H](C(=O)NCC(N)=O)CSCC(=O)N[C@@H](Cc2ccc(O)cc2)C(=O)N2CCC[C@H]2C(=O)N[C@@H](CC(=O)O)C(=O)N2CCC[C@H]2C(=O)N[C@@H](CN)C(=O)N[C@@H](CC(=O)O)C(=O)N2C[C@H](O)C[C@H]2C(=O)N[C@@H](Cc2c[nH]c3ccccc23)C(=O)N[C@@H](CCN)C(=O)N[C@@H](Cc2csc3ccccc23)C(=O)N1C [Example 1181] ({CH2CO}-YPDP[Dap]D[Hyp]W[Dab][Bta][NMeNle][NMeNle][Orn]CG-NH2; thioether N-14)", "6.76 to 30.3 nM"],
  ["CCCC[C@H]1C(=O)N(C)[C@@H](CCCC)C(=O)N[C@@H](CCC(=O)O)C(=O)N[C@H](C(=O)NCC(N)=O)CSCC(=O)N[C@@H](Cc2ccc(O)cc2)C(=O)N(C)[C@@H](C)C(=O)N[C@@H](CCN)C(=O)N2CCC[C@H]2C(=O)N[C@@H](CO)C(=O)N[C@@H](CCC(=O)O)C(=O)N2C[C@H](O)C[C@H]2C(=O)N[C@@H](Cc2c[nH]c3ccccc23)C(=O)N[C@@H](CCCCN)C(=O)N[C@@H](Cc2c[nH]c3ccccc23)C(=O)N1C [Example 5085] ({CH2CO}-Y[NMeA][Dab]PSE[Hyp]WKW[NMeNle][NMeNle]ECG-NH2; thioether N-14)", "0.385 to 6.74 nM"],
  ["CCCC[C@H]1C(=O)N(C)[C@@H](CCCC)C(=O)N[C@@H](CCCNC(=N)N)C(=O)N[C@H](C(=O)NCC(N)=O)CSCC(=O)N[C@@H](Cc2ccc(O)cc2)C(=O)N(C)[C@@H](CCC(=O)O)C(=O)N[C@@H](CC(N)=O)C(=O)N2CCC[C@H]2C(=O)N[C@@H](Cc2cnc[nH]2)C(=O)N[C@@H](CC(C)C)C(=O)N(C)CC(=O)N[C@@H](Cc2c[nH]c3ccccc23)C(=O)N[C@@H](CO)C(=O)N[C@@H](Cc2c[nH]c3ccccc23)C(=O)N1C", "> 30.5 nM"]
]}

---

Reported IC50 is given for each of the following compounds.
target: Human PD-L1/PD-1 (Homo sapiens, UniProt Q9NZQ7); construct: made in house; host or cells: HEK293T; test: HTRF PD-1-Ig/PD-L1-His binding assay (human PD-L1); details: cluster symbol; read-out: HTRF IC50 cluster
Positions of bridges follow the written chain, without caps; N, C: chain ends. Non-standard residues stand in square brackets, D forms with d. Residues, ends and D or L forms follow the SMILES beside them. ξ: configuration not given here. 1Nal = N[C@@H](Cc1cccc2ccccc12)C(=O)O; Bta = N[C@@H](Cc1csc2ccccc12)C(=O)O; Hyp = O=C(O)[C@@H]1C[C@@H](O)CN1; NMeNle = CCCC[C@H](NC)C(=O)O; NMeS = CN[C@@H](CO)C(=O)O; NMeA = CN[C@@H](C)C(=O)O; Dap = NC[C@H](N)C(=O)O; ξC = NC(CS)C(=O)O; Sar = CNCC(=O)O

{"columns": ["Compound", "Target Or Test System", "IC50"],
 "data": [
  ["CCCC[C@H]1C(=O)N(C)[C@@H](CCCC)C(=O)N[C@@H](CCCNC(=N)N)C(=O)N[C@@H](C(=O)NCC(N)=O)CSCC(=O)N[C@@H](Cc2ccccc2)C(=O)N(C)[C@@H](C)C(=O)N[C@@H](CC(N)=O)C(=O)N2CCC[C@H]2C(=O)N[C@@H](Cc2cnc[nH]2)C(=O)N[C@@H](CC(C)C)C(=O)N(C)CC(=O)N[C@@H](Cc2c[nH]c3ccccc23)C(=O)N[C@@H](CO)C(=O)N[C@@H](Cc2cccc3ccccc23)C(=O)N1C [Example 1002] ({CH2CO}-F[NMeA]NPHL[Sar]WS[1Nal][NMeNle][NMeNle]R[dC]G-NH2; thioether N-14)", "Human PD-L1/PD-1 (Homo sapiens, UniProt Q9NZQ7)", "6.76 to 30.3 nM"],
  ["CCCC[C@H]1C(=O)N(C)[C@@H](CCCC)C(=O)N[C@@H](C)C(=O)N[C@H](C(=O)NCC(N)=O)CSCC(=O)N[C@@H](Cc2ccc(O)cc2)C(=O)N(C)[C@@H](C)C(=O)N[C@@H](CC(N)=O)C(=O)N2CCC[C@H]2C(=O)N[C@@H](Cc2cnc[nH]2)C(=O)N[C@@H](CC(C)C)C(=O)N2CCC[C@H]2C(=O)N[C@@H](Cc2c[nH]c3ccccc23)C(=O)N[C@@H](Cc2ccc(O)cc2)C(=O)N[C@@H](Cc2csc3ccccc23)C(=O)N1C [Example 1050] ({CH2CO}-Y[NMeA]NPHLPWY[Bta][NMeNle][NMeNle]ACG-NH2; thioether N-14)", "Human PD-L1/PD-1 (Homo sapiens, UniProt Q9NZQ7)", "> 30.5 nM"],
  ["CCCC[C@H]1C(=O)N(C)[C@@H](CO)C(=O)N[C@@H](CCCNC(=N)N)C(=O)NC(C(=O)NCC(N)=O)CSCC(=O)N[C@@H](Cc2ccc(O)cc2)C(=O)N(C)[C@@H](C)C(=O)N[C@@H](CC(N)=O)C(=O)N2CCC[C@H]2C(=O)N[C@@H](Cc2cnc[nH]2)C(=O)N[C@@H](CC(C)C)C(=O)N2CCC[C@H]2C(=O)N[C@@H](Cc2c[nH]c3ccccc23)C(=O)N[C@@H](CO)C(=O)N[C@@H](Cc2csc3ccccc23)C(=O)N1C (stereo partly shown) [Example 9044] ({CH2CO}-Y[NMeA]NPHLPWS[Bta][NMeNle][NMeS]R[ξC]G-NH2; thioether N-14)", "Human PD-L1/PD-1 (Homo sapiens, UniProt Q9NZQ7)", "0.385 to 6.74 nM"],
  ["CCCC[C@H]1C(=O)N(C)[C@@H](CCCC)C(=O)N[C@@H](CCCNC(=N)N)C(=O)N[C@H](C(=O)NCC(N)=O)CSCC(=O)N[C@@H](Cc2ccc(O)cc2)C(=O)N(C)[C@@H](C)C(=O)N[C@@H](CC(N)=O)C(=O)N2CCC[C@H]2C(=O)N[C@@H](CN)C(=O)N[C@@H](CC(N)=O)C(=O)N2C[C@H](O)C[C@H]2C(=O)N[C@@H](Cc2c[nH]c3ccccc23)C(=O)N[C@@H](CO)C(=O)N[C@@H](Cc2csc3ccccc23)C(=O)N1C [Example 6028] ({CH2CO}-Y[NMeA]NP[Dap]N[Hyp]WS[Bta][NMeNle][NMeNle]RCG-NH2; thioether N-14)", "Human PD-L1/PD-1 (Homo sapiens, UniProt Q9NZQ7)", "6.76 to 30.3 nM"]
]}
